Tested on: maize
Experiment: Pre-emergence test in maize (crop plant compatibility)
Type: in vivo
Settings: Table A30; 90 g of a.i./ha
Experimental: Solvent: 2 to 3 parts by weight of acetone or N,N-dimethyl-formamide Emulsifier: 1 part by weight of alkylaryl polyglycol ether To produce a suitable preparation of active compound, 1 part by weight of active compound is mixed with the stated amount of solvent, the stated amount of emulsifier is added and the concentrate is diluted with water to the desired concentration. Formulated products are dissolved in water and then diluted with water to the desired concentration. […]
quantity: Maize (7 days) (%)
Numbers only, in %.

Consider the molecule shown here: CCS(=O)(=O)Nc1cc(-n2c(=O)cc(C(F)(F)F)n(C)c2=O)c(F)cc1C(N)=S [I-6] What is its recorded Maize (7 days)?
60
